Where do these numbers come from? They come from ChEMBL document CHEMBL1201862.

System: NCI-H226
Test: NCI tumour cell line growth inhibition, 48 h
Active and inactive are the calls of the source. Rule as the data show it: active = GI50 up to about 1.1 µM and inactive = higher.
Can you tell me GI50 for the items I'm about to list?

Data request, read-out GI50, for COc1ccc(-c2cc(-c3ccc(Nc4ccnc5cc(Cl)ccc45)cc3)nc(N)c2C#N)cc1
> 100 µM (inactive)

Same again, this time with N#CC(c1ccccc1)N(CCOCCOCCN(C(=O)c1ccccc1)C(C#N)c1ccccc1)C(=O)c1ccccc1 (stereo not drawn)
> 100 µM (inactive)

Can you handle CCO/C=N/C1=C(C#N)C(c2ccc(OC)c(OC)c2)c2c(-c3ccccc3)nn(-c3ccccc3)c2O1 (stereo not drawn) next?
11.3 µM (inactive)

Another compound: COc1cccc(OC)c1/C=C1\OC(=O)c2cccc(OC)c21
3.84 µM (inactive)

Check Cn1c(=O)n2n(c1=O)[C@@H](c1ccccc1)[C@H]2c1ccccc1 too.
> 100 µM (inactive)

// repeat for CCOC(=O)c1c2ccccc2n2c(=O)n(C)nnc12 and report
> 100 µM (inactive)

Lookup O=C1NC2CCCCC2N=C1CC(=O)c1ccc(Br)cc1 (stereo not drawn)
4.22 µM (inactive)

// repeat for Cc1cc(NS(=O)(=O)c2ccc(NC(=O)COC(=O)c3cccc4c(=O)c5ccccc5[nH]c34)cc2)no1 and report
> 100 µM (inactive)

* * *

System: HOP-92
Test: NCI tumour cell line growth inhibition, 48 h
Calls of active or inactive are those of the source. No stated cut-off is given here; in the data, active = GI50 up to about 1.1 µM and inactive = higher.
Give GI50 for every item shown.

Reported GI50, compound COc1ccc(C2c3c(n(C)c(=O)n(C)c3=O)OC(N(C)C)(N(C)C)C2(F)F)cc1 (stereo unspecified) : ____
> 100 µM (inactive)

Cc1cnoc1/N=C1\C=C(O)C(=O)c2ccccc21 , same question.
29.4 µM (inactive)

What about this compound? C/C(CC(=O)Nc1ccc(Cl)cc1)=N\NC(=O)C[n+]1ccccc1
> 100 µM (inactive)

What do you have for COC(=O)C1Cc2cccc(C)c2C1 (stereo unspecified) ?
> 100 µM (inactive)

Can you check CCOc1ccc(NCC(=O)N2CC(=O)Nc3ccccc32)cc1 next?
> 100 µM (inactive)

Moving on to CSc1nc(Br)nc2ncn(C3CC(Oc4ccc(C)cc4)C(COc4ccc(C)cc4)O3)c12 (stereo unspecified)
34 µM (inactive)

* * *

Tested on: U-251
Experiment: NCI tumour cell line growth inhibition, 48 h
Activity calls are given as the source filed them. No stated cut-off is given here; in the data, active = GI50 up to about 1.1 µM and inactive = higher.
For each record, write down the corresponding GI50.

What does the data say about its GI50? Entry: Cc1ccccc1NC(=O)/C=N/O
> 100 µM (inactive)

Record: O=c1c2c3ccccc3[nH]c2c2cccc3c2n1CCC3
36.1 µM (inactive)

Quick one: CCOc1ccc2ccc3cccnc3c2n1
48.4 µM (inactive)

Cool, now Nc1nc(N)nc(CCCCc2nc(N)nc(N)n2)n1
> 100 µM (inactive)

Try this compound next: O=C(CCSC(CC(=O)c1ccc(Cl)cc1)c1ccc(Cl)cc1)Nc1ccc(Cl)cc1 (stereo unspecified)
9.06 µM (inactive)

And CC12CP(=O)(c3ccccc3)CC1C2(Cl)Cl (stereo unspecified) ?
> 100 µM (inactive)

Here is the next compound: COC(=O)C(Cc1nc2ccc(Cl)cc2nc1O)/C(=N/O)C(=O)Nc1cccc(Cl)c1C (stereo unspecified)
> 100 µM (inactive)

Same thing, different compound: Cc1cccc(CNc2[nH]cnc3nncc2-3)c1
> 100 µM (inactive)

Check CC1=C(C(=O)Nc2cccc3c2C(=O)NC3=O)CC(C(=O)Nc2cccc3c2C(=O)NC3=O)=C(C)N1 too.
> 100 µM (inactive)

Likewise for COc1cc(OCc2ccc3nc(-c4ccccc4)c(N)nc3c2)cc(OC)c1OC ?
32.5 µM (inactive)

Item: N#CC(c1ccccn1)c1nc2ccccc2[nH]1 (stereo unspecified)
> 100 µM (inactive)

Same read-out for O=C(/C=C/c1ccc(OCC(=O)N2CCN(c3ccccc3)CC2)cc1)c1ccc(Cl)cc1 ?
15.7 µM (inactive)

Subsequent entry: COC(c1ccccc1)C(c1ccccc1)N1CCOCC1 (stereo unspecified)
> 100 µM (inactive)

Moving on to the next compound: CC(=O)CCC#Cc1ccccc1C(=O)C(C)=[N+]=[N-]
36.8 µM (inactive)

Proceed to c1ccc2c(c1)nc1ccccn12
> 100 µM (inactive)

Do the same for COc1ccc(/C=N/N=C(\N)NO)c(Cl)c1O please
26.8 µM (inactive)

Another: C[N+]12CCCCC1C(COc1cccc3cccnc13)CCC2 (stereo unspecified)
> 100 µM (inactive)

Okay, and c1csc(-c2nccc3c2[nH]c2ccccc23)c1 ?
25.4 µM (inactive)

Another compound: Nc1nc(Cl)cc(NCC2(CO)CCC(CCc3ccccc3)C2)n1 (stereo unspecified)
15 µM (inactive)

Repeat with C[N+](C)(C)CC(=O)N/N=C(\CCC(=O)NCCc1ccccc1)CC(=O)c1ccccc1
> 100 µM (inactive)

// repeat for C/C(=C/C(=O)Nc1ccccc1)Nc1onc(C)c1C and report
> 100 µM (inactive)

One more compound: COc1cccc(OC)c1/C=C1\OC(=O)c2cccc(OC)c21
3.32 µM (inactive)

Another compound to look at: O=c1[nH]c(=O)n(C2CC(O)C(CO)O2)cc1/N=N/NCc1ccccc1 (stereo unspecified)
> 100 µM (inactive)

Moving on to the next compound: C=CCN(C(C)=O)c1cc(OCc2ccccc2)c2c(c1)c(C)cn2S(=O)(=O)c1ccccc1
4.98 µM (inactive)

What do we get for O=C(O)CCCC(=O)Nn1c(Cc2ccc(Cl)cc2)n[nH]c1=O ?
> 100 µM (inactive)

Now the same for CC12CCC(=O)C[C@H]1CCC(OC=O)C2Br (stereo partly specified)
> 100 µM (inactive)
